All figures here come from PubChem BioAssay (NCI).

Tested on: HCC-2998 colon
PROTOCOL_DETAILS: NCI-60 one-dose screen, 48 h
COND: 10 µM unless noted
About 83,000 compounds went through this panel and 20% of them were active in at least one assay; those are over-represented in the sample as a whole. Active and inactive are the calls of the source. The calls were made as follows: active = growth percent below 10; inactive = the rest.
Bench note: report the call from Yes (active), No (inactive)

- NC(=O)NS(=O)(=O)c1ccc(N2N=C(C(F)(F)F)CC2c2cc(C(F)(F)F)cc(C(F)(F)F)c2)cc1 (stereo not drawn): No

Now consider the entry below.
Prompt: Check the results log: what was the call for C[C@]12CC[C@H](O)CC1=CC[C@@H]1[C@@H]2CC[C@]2(C)C(c3cccnc3)=CC[C@@H]12 ?
Completion: No

----------
System: SF-539 CNS
PROTOCOL_DETAILS: NCI-60 one-dose screen, 48 h (100 = growth as untreated, 0 = no growth, -100 = all killed)
COND: 10 µM unless noted
This is part of a sample that, as a whole, favours compounds with a hit. Of some 83,000 tested, about 20% had one in any assay. The source made the active and inactive calls. How the source made its calls: active means growth percent below 10; inactive means the rest.
QUANTITY: growth

* Cc1sc2nc(N3CCCCC3)[nH]c(=O)c2c1C | 97.9% (inactive)
* CC(=O)N1N=C(c2ccc(C(F)(F)F)cc2)CC1c1ccc2c(c1)OCO2 (centres undefined) | 101% (inactive)
* COc1cnc2c(c1)C(=O)c1c-2n(CCCN2CCC(O)CC2)c(=O)c2cc(F)ccc12 | -17.1% (active)
* O=C(Oc1cccc2ccccc12)c1ccccc1C(=O)c1ccccc1 | 103% (inactive)
* Cc1ccc(C2=NNC(c3sc(Cl)nc3Cl)C2)cc1 (centres undefined) | 118% (inactive)

For every item in the list below, what is its measured growth?
1. Cc1cc(C)cc(S(=O)(=O)n2ccc(-c3ccc4c(c3)CCC(C)(C)O4)n2)c1
2. COc1ccc(CC(=O)Nc2nn3c(-c4cc(C(F)(F)F)cc(C(F)(F)F)c4)nnc3s2)cc1
3. O=C(c1ccc(N2CCOCC2)cc1[N+](=O)[O-])N1CCOCC1
4. CC1(C)CC2(C)CC(=O)C1C(C(=O)O)C2C(=O)O (centres undefined)

Completion:
["99.9% (inactive)", "65.7% (inactive)", "107% (inactive)", "108% (inactive)"]

----------
Could you please report measured growth for the items listed next?
Test system: SF-539 CNS
PROTOCOL_DETAILS: NCI-60 one-dose screen, 48 h (100 = growth as untreated, 0 = no growth, -100 = all killed)
COND: 10 µM unless noted
Compounds without any hit were thinned out: in the full panel of roughly 83,000, 20% have a hit.
One number for each entry, in %.

Guide cases for growth, answers given:
- O=C(Nc1cccc(Cl)c1)Nc1cccc(Cl)c1: 91.4
- CC1c2ccccc2-c2ccccc2N1C (stereo not drawn): 50.2
- CCSc1nc(Nc2ccc(S(=O)(=O)Nc3ccon3)cc2)c(C#N)c(-c2cccc(Br)c2)n1: 82.2
- NC(=O)c1cc(Br)cc(Br)c1NS(=O)(=O)c1ccccc1: 98.6
- COc1cc(C2=NN(C=O)C(c3cccc(Nc4ccnc5cc(Cl)ccc45)c3)C2)cc(OC)c1OC (stereo not drawn): 91.7
- Nc1ccc(N=Nc2ccccc2)cc1[N+](=O)[O-]: 92.6

Dear colleague, could you send me growth for each of the items below? Thanks.
1. COc1ccc2cc(C3=CC(=O)CCC3)ccc2c1
2. COc1ccc2c(c1)CC[C@@H]1[C@@H]2CC[C@]2(C)[C@@H](O)C(=O)C[C@@H]12

Completion:
[95.7, 100]
